Kindly state pIC50 for each of the entries shown.
- experiment-description: Cytotoxicity against human GLC15 cells by MTT assay
- Assay type: functional, cell-based
Please report pIC50 as the negative decimal logarithm of the molar concentration, giving only the number.

Ask: Item under review: Cc1cc(C)c(-n2cc[n+](CC(=O)c3ccc(Br)cc3)c2)c(C)c1 . Reported pIC50?
Result: 4.43

Ask: Record: Cc1cc(C)c(-n2c[n+](CC(=O)c3ccc4ccccc4c3)c(C)c2C)c(C)c1
Result: 5.37

Ask: Also, O=C(C[n+]1ccn(C23CC4CC(CC(C4)C2)C3)c1)c1ccccc1 please.
Result: 3.97

Ask: Now consider CC(C)c1cccc(C(C)C)c1-n1cc[n+](CC(=O)c2ccc(Br)cc2)c1 .
Result: 4.74

Ask: Moving on to the next compound: COc1ccc(C(=O)C[n+]2ccn(-c3ccc([N+](=O)[O-])cc3)c2)cc1
Result: 4.01

---

Assign pIC50 to each entry below.
- Test system: A-431
- experiment-description: Cytotoxicity against human A431 cells by MTT assay
- Format: functional, cell-based
API: returns pIC50 as number; meaning -log10 of concentration in mol/L.

Ask: Query (molecule): CC(=O)Cc1ccc(-n2cc[n+](CC(=O)c3ccccc3)c2)cc1 ; field requested: pIC50
Result: 5.15

Ask: Further, for CC(C)c1cccc(C(C)C)c1-n1cc[n+](CC(=O)c2ccc3ccccc3c2)c1 ?
Result: 4.83

Ask: Request: COc1ccc(C(=O)C[n+]2ccn(C34CC5CC(CC(C5)C3)C4)c2)cc1
Result: 5.20

---

- System: HEp-2
- experiment-description: Cytotoxicity against human Hep2 cells by MTT assay
- Assay type: functional, cell-based
assay-metric: pIC50
pIC50 here is simply -log10 of the concentration when that concentration is written in mol/L.

Ask: Reported pIC50, molecule CC(C)c1cccc(C(C)C)c1-n1cc[n+](CC(=O)c2ccc(Br)cc2)c1 : ____
Result: 5.04

Ask: Next molecule: COc1ccc(C(=O)C[n+]2ccn(-c3c(C(C)C)cccc3C(C)C)c2)cc1
Result: 5.55

Ask: Here is the next molecule: COc1ccc(C(=O)C[n+]2ccn(-c3ccc([N+](=O)[O-])cc3)c2)cc1
Result: 4.38

Ask: Can you check CC(C)c1cccc(C(C)C)c1-n1cc[n+](CC(=O)c2ccc3ccccc3c2)c1 next?
Result: 5.46

Ask: // repeat for Cc1cc(C)c(-n2cc[n+](CC(=O)c3ccc4ccccc4c3)c2)c(C)c1 and report
Result: 6.15

Ask: For COc1ccc(CCn2cc[n+](CC(=O)c3ccc4ccccc4c3)c2)cc1OC then?
Result: 4.11

Ask: Entry COc1ccc(C(=O)C[n+]2ccn(-c3ccc(CC(C)=O)cc3)c2)cc1 please
Result: 4.07

All figures here come from ChEMBL document CHEMBL1153355.
